- Read-out: Glutathione S-Transferase (GSTA2), GSTA2 (gene 2939)
- experimental_protocol: LTEA_HepaRG_GSTA2: Life Technologies and Expression Analysis (LTEA) Assay for Glutathione S-Transferase (GSTA2) using HepaRG (AID 2283497)
- condition_description: mRNA level, 48 h; actives raise or lower the signal
Active and inactive are the calls of the source. The calls were made as follows: active = hit-call score of the fitted dose curve at least 0.9, where 1 is the maximum; inactive = score below 0.9.
Outcomes you can answer with include only these: label 1 = active, label 0 = inactive

// outcome(item) with item = `C[Si](Cn1cncn1)(c1ccc(F)cc1)c1ccc(F)cc1`
label 1

Each molecule tested received a call. Report the one for CCC(=NOC/C=C/Cl)C1=C(O)CC(C2CCOCC2)CC1=O (configuration not stated) .
label 0

Query: recorded result category for `COc1cc(OC)nc(Sc2cccc(Cl)c2C(=O)O)n1` in this test
label 0

Check the results log: what was the call for `CN(C)NC(=O)CCC(=O)O` ?
label 0

// param item: `CCOC(=O)COc1cc(-c2nn(C)c(OC(F)F)c2Cl)c(F)cc1Cl` ; yields the recorded call
label 0

Assay result, entry `CCCCOC(=O)[C@@H](C)Oc1ccc(Oc2ccc(C#N)cc2F)cc1` — outcome?
label 0

Tell me the recorded outcome of this test for `CCOP(=S)(OCC)Oc1ccc2c(C)c(Cl)c(=O)oc2c1` .
label 1

How did this test come out for `Nc1nc(N)nc(NC2CC2)n1` ?
label 0

Which outcome was assigned to CCc1cnc(C2=NC(C)(C(C)C)C(=O)N2)c(C(=O)O)c1 (configuration not stated) in this test?
label 0

// return assay outcome for CCCSP(=O)(OCC)Oc1ccc(Br)cc1Cl (configuration not stated)
label 0

Any idea what this test logged for `CNC(=O)Oc1cccc2c1OC(C)(C)O2` ?
label 0

So what was the verdict on CC(C1CC1)C(O)(Cn1cncn1)c1ccc(Cl)cc1 (configuration not stated) in this test?
label 1

====

- experimental_protocol: ATG_XTT_Cytotoxicity_XSP2: Cytotoxicity Assessment in the Attagene TRANS-FACTORIAL Multi-Species (XSP2) HepG2 Assay (AID 2283837)
Inconclusive results are not listed. Activity calls are given as the source filed them. The calls were made as follows: active = hit-call score of the fitted dose curve at least 0.9, where 1 is the maximum; inconclusive = response in the unintended direction; inactive = score below 0.9.
observable: outcome

• CCOP(=O)(NC(C)C)Oc1ccc(SC)c(C)c1 (centres undefined) = inactive
• Nc1c(Cl)cc([N+](=O)[O-])cc1Cl = inactive
• CCC(=O)Nc1ccc(Cl)c(Cl)c1 = inactive
• COc1ccc(C(=CC(=O)N2CCOCC2)c2ccc(Cl)cc2)cc1OC = inactive

====

- experimental_protocol: BSK_hDFCGF_Proliferation: Cell Proliferation Assessment in the BioMAP Diversity Plus: hDFCGF Assay (AID 2283059);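 also: curves fitted for both rise and fall of signal versus DMSO baseline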
- condition_description: primary human foreskin fibroblasts
The source made the active and inactive calls. Rule for the calls: active = hit-call score of the fitted dose curve at least 0.9, where 1 is the maximum; inactive = score below 0.9.
I would appreciate it if you answered using one of these outcomes: active, inactive

Please let me know the test result on file for `CNC(=O)Oc1cccc2c1OC(C)(C)O2` .
inactive

Per the records of this test, what outcome belongs to `COP(=O)(OC)SCn1c(=O)oc2cc(Cl)cnc21` ?
active

Could you kindly confirm the outcome this assay logged for COP(=O)(NC(C)=O)SC (configuration not stated) ?
inactive

Could you kindly confirm the outcome this assay logged for FC(F)C(F)(F)OCC(Cn1cncn1)c1ccc(Cl)cc1Cl (configuration not stated) ?
active

Recorded test call requested for `CC(C)N(C(=O)SCC(Cl)=C(Cl)Cl)C(C)C`
active

Called result for `CCC(CC)Nc1c([N+](=O)[O-])cc(C)c(C)c1[N+](=O)[O-]`
active

# fetch the recorded call for `C[N+]1(C)CCCCC1` here
inactive
